# credit: patent US6689762B1

Test system: CEM/0 cells
assay_overview: cells
Type: cell-based, human
settings: Homo sapiens, CCRF-CEM, 72 h, read-out: IC50 in CEM/0 cells
value_kind: IC50 (µM)
// return numeric value only (unit: µM, not printed)

Answer with the recorded IC50 of `CC(C)(C)NC(=O)[C@@H]1C[C@@H]2CCCC[C@@H]2CN1C[C@@H](O)[C@H](Cc1ccccc1)NC(=O)[C@H](CC(N)=O)NC(=O)c1ccc2ccccc2n1` only.
26

----------
Test system: CEM/0 cells
assay_overview: Sequential and concurrent combination cytotoxicity of PEG-ASNase and Saquinavir
Assay type: cell-based, human
settings: read-out: IC50 in combination, Saquinavir part; concurrent combination of PEG-ASNase and Saquinavir; CEM/0 T-cells; listed as SAQ
value_kind: pIC50
The scale used: pIC50 is minus the common logarithm of the concentration in molar units.

Answer with the recorded pIC50 of CC(C)(C)NC(=O)[C@@H]1C[C@@H]2CCCC[C@@H]2CN1C[C@@H](O)[C@H](Cc1ccccc1)NC(=O)[C@H](CC(N)=O)NC(=O)c1ccc2ccccc2n1 [Saquinavir] only.
4.84
